Target: T1, full length human PD-1 on cells (human, UniProt Q15116 25-288)
T1 construct: Also used here for PD-1 on human T cells/PBMC; also called CHO-K1-hPD-1; hPD-1
T1 sequence (Q15116 25-288 limits assumed): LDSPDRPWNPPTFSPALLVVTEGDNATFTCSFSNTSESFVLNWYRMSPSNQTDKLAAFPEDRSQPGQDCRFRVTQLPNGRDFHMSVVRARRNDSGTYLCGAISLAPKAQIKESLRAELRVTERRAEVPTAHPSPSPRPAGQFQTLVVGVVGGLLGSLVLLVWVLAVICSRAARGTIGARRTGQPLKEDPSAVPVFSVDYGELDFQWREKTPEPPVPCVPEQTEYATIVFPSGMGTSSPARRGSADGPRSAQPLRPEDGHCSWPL
Assay: flow cytometry, CHO-K1-hPD-1 cells; antibody 1 nM
ENDPOINT: Mean fluorescence intensity
Lab note: write the figure by itself, no unit.

Here are 3 binders together with their reported answers.
chimeric anti-PD-1 antibody 32B5C7 (antibody, V domains shown, Purified from hybridoma of Harbour H2L2 mice: human variable regions, rat constant regions) VH: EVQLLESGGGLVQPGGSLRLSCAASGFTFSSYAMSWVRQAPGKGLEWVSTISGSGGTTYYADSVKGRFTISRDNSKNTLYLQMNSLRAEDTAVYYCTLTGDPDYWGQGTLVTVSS VL: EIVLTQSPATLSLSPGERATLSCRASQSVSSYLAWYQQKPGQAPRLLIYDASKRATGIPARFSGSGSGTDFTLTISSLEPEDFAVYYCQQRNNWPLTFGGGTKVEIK; 51.1
chimeric anti-PD-1 antibody 21G8F11 (antibody, V domains shown, Purified from hybridoma of Harbour H2L2 mice: human variable regions, rat constant regions) VH: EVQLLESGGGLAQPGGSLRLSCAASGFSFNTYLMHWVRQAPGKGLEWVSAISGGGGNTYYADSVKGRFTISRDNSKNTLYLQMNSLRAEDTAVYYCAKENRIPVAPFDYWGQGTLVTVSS VL: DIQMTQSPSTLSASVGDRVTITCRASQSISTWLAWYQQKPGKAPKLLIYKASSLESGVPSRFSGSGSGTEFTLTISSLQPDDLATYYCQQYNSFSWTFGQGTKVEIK; 166
chimeric anti-PD-1 antibody 76G5B3 (antibody, V domains shown, Purified from hybridoma of Harbour H2L2 mice: human variable regions, rat constant regions) VH: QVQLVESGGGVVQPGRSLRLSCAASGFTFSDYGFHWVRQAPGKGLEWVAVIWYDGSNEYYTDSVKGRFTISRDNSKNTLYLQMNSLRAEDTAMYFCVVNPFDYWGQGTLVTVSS VL: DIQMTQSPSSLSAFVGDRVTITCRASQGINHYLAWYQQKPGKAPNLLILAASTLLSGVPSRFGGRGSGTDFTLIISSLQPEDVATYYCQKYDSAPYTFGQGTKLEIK; 166

Could you share which Mean fluorescence intensity value was measured for chimeric anti-PD-1 antibody 226C3A7 (antibody, V domains shown, Purified from hybridoma of Harbour H2L2 mice: human variable regions, rat constant regions) VH: QVQLQQSGPGLVNPSQTLSLTCAISGDSVSSNSGAWNWIRQSPSRGLEWLGRTYYRSKWYNDYGISVQSRITINPDTSKNHFSLQLNSVTPEDTAVYYCARDPYYYGSGSYFDYWGQGTLVTVSS VL: EIVMTQSPATLSVSPGERVTLSCRASLSVNSNLAWYQQKPGQAPRLLIYDTSTRATGVPARFSGSGSGTEFTLTISSLQSEDFAVYYCQQYHYWPLTFGGGTKVEIK ?
5.2
